experiment: chemical genetic growth profiling, strain panel (AID 1159580);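 note: tested at 20 µM; growth read once vehicle control cultures reached saturation at 30 °C; 1 = growth at the plate median or of vehicle wells; lower values mean less growth of the strain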; conditions: S. cerevisiae deletion strains, growth OD, locus YNL271C, strain bni1, stronger effect = lower value
The campaign covered roughly 5,500 compounds. About 2,000 (36%) were called active. Another 18% or so got no clear call; they are omitted. The list shows a part of the results.
measured-parameter: normalized growth
Respond with the number and no other words.

Sample O=c1[nH]oc2c1CCNC2 — what was its normalized growth?
0.989

Sample CCCCOC(=O)c1ccccc1C(=O)OCc1ccccc1 — what was its normalized growth?
0.973

Sample CC(C)C(C)/C=C/C(C)C1CCC2C3=CC=C4CC(O)CCC4(C)C3CCC21C (configuration not stated) — what was its normalized growth?
0.979

Sample O=c1cc[nH]c(=S)[nH]1 — what was its normalized growth?
1.01

Sample CC(=O)OC1CCC2(C)C(=CC=C3C2CCC2(C)C3CCC2C(C)/C=C/C(C)C(C)C)C1(C)C (configuration not stated) — what was its normalized growth?
1

Sample CC(C(=O)O)c1ccc(C(=O)c2cccs2)cc1 (configuration not stated) — what was its normalized growth?
1.02

Sample CCCCCCOc1ccccc1C(N)=O — what was its normalized growth?
0.696

Sample COc1c2ccoc2c(OC)c2oc(=O)ccc12 — what was its normalized growth?
0.983

Sample OC(Cn1cncn1)(Cn1cncn1)c1ccc(F)cc1F — what was its normalized growth?
0.98

Sample Cc1cc(-c2ccccc2)nnc1NCCN1CCOCC1 — what was its normalized growth?
0.968

Sample CC(C)C(C)/C=C/C(C)[C@H]1CCC2C3=CCC4CC(=O)CC[C@]4(C)C3CC[C@@]21C (some centres not stated) — what was its normalized growth?
1

Sample C=C1C(=O)O[C@@H]2C[C@@]3(C)CCC[C@H](C)C3=C[C@H]12 — what was its normalized growth?
0.855

Reference source for all entries: PubChem BioAssay AID1159580
